Data origin: ChEMBL document CHEMBL3352498

- System: Klebsiella pneumoniae
- test-description: Antimicrobial activity against beta-lactam-resistant Klebsiella pneumoniae ATCC 700603 after 24 hrs by broth microdilution method
- Assay type: functional
- condition-summary: ATCC 700603, 24 h
measurement-label: MIC (µg/mL)

{"columns": ["smiles-str", "measurement-label", "reading-qualifier", "value"],
 "data": [
  ["CCCCCCCCCCCC(=O)N(CCCNC(=O)[C@@H](N)Cc1ccccc1)CCCNC(=O)[C@@H](N)Cc1ccccc1.O=C(O)C(F)(F)F.O=C(O)C(F)(F)F", "MIC", "=", 8],
  ["N[C@@H](Cc1ccccc1)C(=O)NCCCN(CCCNC(=O)[C@@H](N)Cc1ccccc1)C(=O)Cc1cccc2ccccc12.O=C(O)C(F)(F)F.O=C(O)C(F)(F)F", "MIC", ">", 250],
  ["CCCCCCCCCCCC(=O)N(CCCNC(=O)[C@H](N)Cc1ccccc1)CCCNC(=O)[C@H](N)Cc1ccccc1.O=C(O)C(F)(F)F.O=C(O)C(F)(F)F", "MIC", "=", 6.5],
  ["N[C@@H](Cc1ccccc1)C(=O)NCCCNCCCNC(=O)[C@@H](N)Cc1ccccc1.O=C(O)C(F)(F)F.O=C(O)C(F)(F)F.O=C(O)C(F)(F)F", "MIC", ">", 250],
  ["CCCCCCCCCCCCCCCCCC(=O)N(CCCNC(=O)[C@@H](N)Cc1ccccc1)CCCNC(=O)[C@@H](N)Cc1ccccc1.O=C(O)C(F)(F)F.O=C(O)C(F)(F)F", "MIC", "=", 87],
  ["N[C@@H](Cc1ccccc1)C(=O)NCCCN(CCCNC(=O)[C@@H](N)Cc1ccccc1)C(=O)[C@@H](N)Cc1ccccc1.O=C(O)C(F)(F)F.O=C(O)C(F)(F)F.O=C(O)C(F)(F)F", "MIC", ">", 250],
  ["CCCCCCCCCCCCCC(=O)N(CCCN)CCCN.O=C(O)C(F)(F)F.O=C(O)C(F)(F)F", "MIC", "=", 47]
]}

* * *

- test-description: Critical micelle concentration of the compound
- Format: ADME

{"columns": ["smiles-str", "CMC / µg/mL"],
 "data": [
  ["CCCCCCCCCCCC(=O)N(CCCNC(=O)[C@H](N)Cc1ccccc1)CCCNC(=O)[C@H](N)Cc1ccccc1.O=C(O)C(F)(F)F.O=C(O)C(F)(F)F", 40],
  ["CCCCCCCCCCCCCCCCCC(=O)N(CCCNC(=O)[C@@H](N)Cc1ccccc1)CCCNC(=O)[C@@H](N)Cc1ccccc1.O=C(O)C(F)(F)F.O=C(O)C(F)(F)F", 20],
  ["CCCCCCCCCC(=O)N(CCCNC(=O)[C@@H](N)Cc1ccccc1)CCCNC(=O)[C@@H](N)Cc1ccccc1.O=C(O)C(F)(F)F.O=C(O)C(F)(F)F", 156],
  ["CCCCCCCCCCCC(=O)N(CCCNC(=O)[C@@H](N)Cc1ccccc1)CCCNC(=O)[C@@H](N)Cc1ccccc1.O=C(O)C(F)(F)F.O=C(O)C(F)(F)F", 40]
]}

* * *

Let's look at some molecules and their measured MIC.
- Tested on: Escherichia coli
- test-description: Antimicrobial activity against Escherichia coli MTCC 443 after 24 hrs by broth microdilution method
- Format: functional
- condition-summary: MTCC 443, 24 h

{"columns": ["smiles-str", "experimental-system", "reading-qualifier", "MIC, µg/mL"],
 "data": [
  ["CCCCCCCCCCCC(=O)N(CCCNC(=O)[C@@H](N)Cc1ccccc1)CCCNC(=O)[C@@H](N)Cc1ccccc1.O=C(O)C(F)(F)F.O=C(O)C(F)(F)F", "Escherichia coli", "=", 10],
  ["CCCCCCCCCCCC(=O)N(CCCN)CCCN.O=C(O)C(F)(F)F.O=C(O)C(F)(F)F", "Escherichia coli", "=", 108],
  ["CCCCCCCCCCCCCCCC(=O)N(CCCN)CCCN.O=C(O)C(F)(F)F.O=C(O)C(F)(F)F", "Escherichia coli", "=", 14],
  ["N[C@@H](Cc1ccccc1)C(=O)NCCCN(CCCNC(=O)[C@@H](N)Cc1ccccc1)C(=O)Cc1cccc2ccccc12.O=C(O)C(F)(F)F.O=C(O)C(F)(F)F", "Escherichia coli", ">", 250],
  ["CCCCCCCCCC(=O)N(CCCN)CCCN.O=C(O)C(F)(F)F.O=C(O)C(F)(F)F", "Escherichia coli", "=", 231],
  ["CCCCCCCCCCCCCCCCCC(=O)N(CCCN)CCCN.O=C(O)C(F)(F)F.O=C(O)C(F)(F)F", "Escherichia coli", "=", 26],
  ["CCCCCCCCCCCCCCCC(=O)N(CCCNC(=O)[C@@H](N)Cc1ccccc1)CCCNC(=O)[C@@H](N)Cc1ccccc1.O=C(O)C(F)(F)F.O=C(O)C(F)(F)F", "Escherichia coli", "=", 227]
]}

* * *

- test-description: Hemolytic activity in human erythrocytes after 1 hr by spectrophotometry
- Type: ADME, cell-based, Erythrocyte
Let's look at some molecules and their measured HC50 at 1 h.
measurement-label: HC50 at 1 h (µg/mL)

{"columns": ["smiles-str", "reading-qualifier", "value"],
 "data": [
  ["CCCCCCCCCCCCCC(=O)N(CCCN)CCCN.O=C(O)C(F)(F)F.O=C(O)C(F)(F)F", "=", 72],
  ["CCCCCCCCCCCCCCCCCC(=O)N(CCCN)CCCN.O=C(O)C(F)(F)F.O=C(O)C(F)(F)F", "=", 42],
  ["CCCCCCCCCCCCCCCC(=O)N(CCCN)CCCN.O=C(O)C(F)(F)F.O=C(O)C(F)(F)F", "=", 52],
  ["CCCCCCCCCCCC(=O)N(CCCNC(=O)[C@H](N)Cc1ccccc1)CCCNC(=O)[C@H](N)Cc1ccccc1.O=C(O)C(F)(F)F.O=C(O)C(F)(F)F", "=", 209],
  ["CCCCCCCCCCCC(=O)N(CCCN)CCCN.O=C(O)C(F)(F)F.O=C(O)C(F)(F)F", "=", 107],
  ["CCCCCCCCCCCCCC(=O)N(CCCNC(=O)[C@@H](N)Cc1ccccc1)CCCNC(=O)[C@@H](N)Cc1ccccc1.O=C(O)C(F)(F)F.O=C(O)C(F)(F)F", "=", 124],
  ["CCCCCCCCCC(=O)N(CCCN)CCCN.O=C(O)C(F)(F)F.O=C(O)C(F)(F)F", ">", 500],
  ["CCCCCCCCCC(=O)N(CCCNC(=O)[C@@H](N)Cc1ccccc1)CCCNC(=O)[C@@H](N)Cc1ccccc1.O=C(O)C(F)(F)F.O=C(O)C(F)(F)F", "=", 187],
  ["CCCCCCCCCCCC(=O)N(CCCNC(=O)[C@@H](N)Cc1ccccc1)CCCNC(=O)[C@@H](N)Cc1ccccc1.O=C(O)C(F)(F)F.O=C(O)C(F)(F)F", "=", 171],
  ["CCCCCCCCCCCCCCCC(=O)N(CCCNC(=O)[C@@H](N)Cc1ccccc1)CCCNC(=O)[C@@H](N)Cc1ccccc1.O=C(O)C(F)(F)F.O=C(O)C(F)(F)F", "=", 74],
  ["CCCCCCCCCCCCCCCCCC(=O)N(CCCNC(=O)[C@@H](N)Cc1ccccc1)CCCNC(=O)[C@@H](N)Cc1ccccc1.O=C(O)C(F)(F)F.O=C(O)C(F)(F)F", "=", 65]
]}

* * *

- System: Klebsiella pneumoniae
- test-description: Antimicrobial activity against beta-lactam-resistant Klebsiella pneumoniae ATCC 700603 after 24 hrs by broth microdilution method
- Assay type: functional
- condition-summary: ATCC 700603, 24 h
measurement-label: log10 of MIC (log10 of the value in µg/mL)

{"columns": ["smiles-str", "value"],
 "data": [
  ["CCCCCCCCCCCCCCCC(=O)N(CCCN)CCCN.O=C(O)C(F)(F)F.O=C(O)C(F)(F)F", 1.81],
  ["CCCCCCCCCCCCCCCC(=O)N(CCCNC(=O)[C@@H](N)Cc1ccccc1)CCCNC(=O)[C@@H](N)Cc1ccccc1.O=C(O)C(F)(F)F.O=C(O)C(F)(F)F", 1.79],
  ["CCCCCCCCCCCCCCCCCC(=O)N(CCCN)CCCN.O=C(O)C(F)(F)F.O=C(O)C(F)(F)F", 2.03],
  ["CCCCCCCCCCCCCC(=O)N(CCCNC(=O)[C@@H](N)Cc1ccccc1)CCCNC(=O)[C@@H](N)Cc1ccccc1.O=C(O)C(F)(F)F.O=C(O)C(F)(F)F", 1.20],
  ["CCCCCCCCCC(=O)N(CCCNC(=O)[C@@H](N)Cc1ccccc1)CCCNC(=O)[C@@H](N)Cc1ccccc1.O=C(O)C(F)(F)F.O=C(O)C(F)(F)F", 1.76],
  ["CCCCCCCCCCCC(=O)N(CCCN)CCCN.O=C(O)C(F)(F)F.O=C(O)C(F)(F)F", 2.21]
]}
